Data origin: ChEMBL document CHEMBL5338720

Target: Muscarinic acetylcholine receptor M3 (Homo sapiens, UniProt P20309)
Sequence (P20309 whole entry): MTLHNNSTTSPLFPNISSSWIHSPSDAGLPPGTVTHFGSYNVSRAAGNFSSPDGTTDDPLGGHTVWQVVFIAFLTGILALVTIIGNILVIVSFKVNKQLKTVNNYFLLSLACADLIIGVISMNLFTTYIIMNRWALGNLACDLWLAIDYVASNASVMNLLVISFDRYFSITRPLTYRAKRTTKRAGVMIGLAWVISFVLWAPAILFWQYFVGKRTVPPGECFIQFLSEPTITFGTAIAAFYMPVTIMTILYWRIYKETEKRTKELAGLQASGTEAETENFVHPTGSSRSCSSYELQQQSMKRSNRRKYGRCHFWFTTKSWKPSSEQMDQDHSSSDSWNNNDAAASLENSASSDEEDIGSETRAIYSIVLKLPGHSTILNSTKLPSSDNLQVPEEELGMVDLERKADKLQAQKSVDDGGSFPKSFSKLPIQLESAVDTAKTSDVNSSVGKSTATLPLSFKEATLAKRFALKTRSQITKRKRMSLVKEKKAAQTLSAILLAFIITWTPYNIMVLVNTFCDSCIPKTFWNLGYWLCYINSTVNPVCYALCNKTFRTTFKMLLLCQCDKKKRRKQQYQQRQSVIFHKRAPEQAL
parameter: Ki

> print(dat)
                                   molecule  parameter  value.observed
1  CCCN1CCN(c2ccc3c(c2)C(N(C)C(=O)OCc2ccccc2)CCC3)CC1 (stereo unspecified)         Ki         > 10 µM

###

Target: 5-hydroxytryptamine receptor 1E (Homo sapiens)
Sequence (P28566 whole entry): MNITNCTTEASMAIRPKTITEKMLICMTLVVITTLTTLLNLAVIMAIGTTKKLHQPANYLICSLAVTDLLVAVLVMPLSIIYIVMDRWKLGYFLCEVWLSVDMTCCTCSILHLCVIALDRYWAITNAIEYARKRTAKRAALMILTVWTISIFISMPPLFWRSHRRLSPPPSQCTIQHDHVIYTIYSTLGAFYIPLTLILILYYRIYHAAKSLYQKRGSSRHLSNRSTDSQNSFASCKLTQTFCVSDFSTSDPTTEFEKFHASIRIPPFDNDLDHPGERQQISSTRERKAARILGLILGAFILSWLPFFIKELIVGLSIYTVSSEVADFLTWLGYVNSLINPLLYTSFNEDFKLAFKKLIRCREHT
pKi: −log10 of the molar value.
parameter: pKi

> print(dat)
                                   compound  value.observed
1  CCCN1CCN(c2ccc3c(c2)C(N(C)C(=O)OCc2ccccc2)CCC3)CC1 (stereo unspecified)          < 5.00
